Source: patent US20050107386A1

Form field: Inhibitory activity (% of control), CDK5/p35(h) (one value per entry).
Target: CDK5/p35(h) (Homo sapiens)
Sequence (Q00535 whole entry): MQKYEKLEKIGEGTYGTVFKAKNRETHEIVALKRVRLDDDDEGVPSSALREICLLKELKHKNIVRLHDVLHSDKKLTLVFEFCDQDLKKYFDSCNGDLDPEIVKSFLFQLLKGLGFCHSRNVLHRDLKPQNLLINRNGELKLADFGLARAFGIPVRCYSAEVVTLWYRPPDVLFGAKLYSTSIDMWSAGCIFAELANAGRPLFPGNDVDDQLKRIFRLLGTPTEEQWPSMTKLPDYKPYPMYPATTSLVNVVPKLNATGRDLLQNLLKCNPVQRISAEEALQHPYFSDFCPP
Sequence (Q15078 whole entry partner): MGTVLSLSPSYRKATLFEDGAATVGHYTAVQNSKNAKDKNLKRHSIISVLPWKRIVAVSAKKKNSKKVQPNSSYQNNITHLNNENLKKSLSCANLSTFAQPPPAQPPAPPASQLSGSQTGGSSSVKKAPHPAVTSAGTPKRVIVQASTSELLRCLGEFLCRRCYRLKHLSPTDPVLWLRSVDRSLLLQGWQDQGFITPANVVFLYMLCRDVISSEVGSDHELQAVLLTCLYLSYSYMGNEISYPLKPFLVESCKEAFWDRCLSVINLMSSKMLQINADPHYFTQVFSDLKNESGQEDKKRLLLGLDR
Experiment: CDK5/p35(h) kinase assay
Type: biochemical
Conditions: 3 μM; percent of control kinase activity

Any idea what Inhibitory activity (% of control), CDK5/p35(h) came out for CC(C)(C)Cc1nc(-c2ccc3[nH]nc(-c4ccc5cc(OCc6ccccn6)ccc5c4)c3c2)n[nH]1 [CC004] on CDK5/p35(h) (Homo sapiens)?
10 % of control

API: value(readout= Inhibitory activity (% of control), CDK5/p35(h), system= CDK5/p35(h) (Homo sapiens), query= CC(C)Cc1nc(-c2ccc3[nH]nc(-c4ccc5cc(OCCN6CCCC6)ccc5c4)c3c2)n[nH]1 [CC002] )
16 % of control

Could you share what Inhibitory activity (% of control), CDK5/p35(h) was measured for O=C(NC1CCCC1)c1cccc(-c2n[nH]c3ccc(-c4nc[nH]n4)cc23)c1 [CC007, reference compound] , tested on CDK5/p35(h) (Homo sapiens)?
50 % of control
